measurementProtocol: Luciferase activity of purified RLuc mutants (light output integrated over 10 s, luminometer)
Assay type: biochemical
conditions: coelenterazine-cp; relative to native enzyme
# Lookup of reported Activity (relative to RLuc) cp keyed by entry
Give only the figure.

As a guide, the following entries are already answered.
Input: Which Activity (relative to RLuc) cp is reported for this molecule? C124A/K300A: RLuc mutant C124A/K300A (protein) MASKVYDPEQRKRMITGPQWWARCKQMNVLDSFINYYDSEKHAENAVIFLHGNAASSYLWRHVVPHIEPVARCIIPDLIGMGKSGKSGNGSYRLLDHYKYLTAWFELLNLPKKIIFVGHDWGAALAFHYSYEHQDKIKAIVHAESVVDVIESWDEWPDIEEDIALIKSEEGEKMVLENNFFVETMLPSKIMRKLEPEEFAAYLEPFKEKGEVRRPTLSWPREIPLVKGGKPDVVQIVRNYNAYLRASDDLPKMFIESDPGFFSNAIVEGAKKFPNTEFVKVKGLHFSQEDAPDEMGKYIASFVERVLKNEQ
Output: 1.1

Input: Try the molecule A54P/C124A: RLuc mutant A54P/C124A (protein) MASKVYDPEQRKRMITGPQWWARCKQMNVLDSFINYYDSEKHAENAVIFLHGNPASSYLWRHVVPHIEPVARCIIPDLIGMGKSGKSGNGSYRLLDHYKYLTAWFELLNLPKKIIFVGHDWGAALAFHYSYEHQDKIKAIVHAESVVDVIESWDEWPDIEEDIALIKSEEGEKMVLENNFFVETMLPSKIMRKLEPEEFAAYLEPFKEKGEVRRPTLSWPREIPLVKGGKPDVVQIVRNYNAYLRASDDLPKMFIESDPGFFSNAIVEGAKKFPNTEFVKVKGLHFSQEDAPDEMGKYIKSFVERVLKNEQ
Output: 0.05

Input: Next entry: C124A/S287L: RLuc mutant C124A/S287L (protein) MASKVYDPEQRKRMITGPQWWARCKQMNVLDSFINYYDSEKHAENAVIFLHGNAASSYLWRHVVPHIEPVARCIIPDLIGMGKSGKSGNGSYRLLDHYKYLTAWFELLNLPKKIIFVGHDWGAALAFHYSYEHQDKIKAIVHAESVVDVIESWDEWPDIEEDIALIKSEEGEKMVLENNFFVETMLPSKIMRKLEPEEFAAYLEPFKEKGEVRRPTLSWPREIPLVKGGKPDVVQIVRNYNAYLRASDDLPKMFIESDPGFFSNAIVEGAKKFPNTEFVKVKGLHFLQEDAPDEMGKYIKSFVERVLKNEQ
Output: 3.4

Let us examine a further case.
Input: For the molecule shown here, C124A/Q235A: RLuc mutant C124A/Q235A (protein) MASKVYDPEQRKRMITGPQWWARCKQMNVLDSFINYYDSEKHAENAVIFLHGNAASSYLWRHVVPHIEPVARCIIPDLIGMGKSGKSGNGSYRLLDHYKYLTAWFELLNLPKKIIFVGHDWGAALAFHYSYEHQDKIKAIVHAESVVDVIESWDEWPDIEEDIALIKSEEGEKMVLENNFFVETMLPSKIMRKLEPEEFAAYLEPFKEKGEVRRPTLSWPREIPLVKGGKPDVVAIVRNYNAYLRASDDLPKMFIESDPGFFSNAIVEGAKKFPNTEFVKVKGLHFSQEDAPDEMGKYIKSFVERVLKNEQ , give the reported Activity (relative to RLuc) cp.
Output: 1.1
